tested on: Escherichia coli; experiment: Antimicrobial activity against Escherichia coli; assay type: functional
metric: MIC

Before answering, review these 5 worked examples.
Look up MIC: CC(C)(C)Nc1c(-c2cc3ccccc3n3nnnc23)nc2sccn12
> 320 µg/mL

Look up MIC: COc1cc(-n2nnnc2SCCC(=O)N2CCN(c3cc4c(cc3F)c(=O)c(C(=O)O)cn4C3CC3)CC2)cc(OC)c1OC
15.6 µg/mL

Look up MIC: O=C1S/C(=C\c2ccccc2Cl)C(=O)N1Cc1ccc(-c2ccccc2-c2nnn[nH]2)cc1
7.75 to 35.4 µg/mL

Look up MIC: Oc1ccc(-c2nnnn2-c2nc3ccccc3s2)cc1O
50 to 100 µg/mL

Look up MIC: COc1ccc(C2=NN(C(N)=S)C(c3cc4ccc(C)cc4n4nnnc34)C2)cc1 (stereo not given)
3.12 to 25 µg/mL

Hi there! I need MIC for each item below, if you can.
1. CCn1nnnc1SCCC(=O)N1CCN(c2cc3c(cc2F)c(=O)c(C(=O)O)cn3C2CC2)CC1
2. O=C(O)c1cn(C2CC2)c2cc(N3CCNCC3)c(F)cc2c1=O
3. Cc1ccc2c(c1)cc(C1CC(c3ccccn3)=NN1C(N)=S)c1nnnn12 (stereo not given)
4. COc1cc(-c2nnnn2-c2nc3ccccc3s2)cc(OC)c1OC
5. COc1cc(Cc2cnc(N)nc2N)cc(OC)c1OC
6. c1ccc(C(c2ccccc2)(c2ccccc2)n2nnnc2-c2ccccc2-c2ccc(CNn3cnnc3)cc2)cc1
7. Fc1cc2[nH]c(SCc3ccc(-c4ccccc4-c4nnnn4C(c4ccccc4)(c4ccccc4)c4ccccc4)cc3)nc2cc1-n1cncn1
8. COc1ccc(C(=O)/C=C/c2cc3cc(C)ccc3n3nnnc23)cc1

["15.6 µg/mL", "25 to 50 µg/mL", "3.12 to 100 µg/mL", "50 to 100 µg/mL", "125 µg/mL", "22.4 µg/mL", "16 to 64 µg/mL", "6.25 to 100 µg/mL"]

Hi there! I need MIC for each item below, if you can.
1. Cc1ccc2c(c1)cc(/C=C/C(=O)c1ccccn1)c1nnnn12
2. O=C1S/C(=C\c2ccc(Cl)cc2)C(=O)N1Cc1ccc(-c2ccccc2-c2nnn[nH]2)cc1
3. c1ccc(-c2nnnn2-c2nc3ccccc3s2)cc1
4. c1ccc(CCNc2c(-c3cc4ccccc4n4nnnc34)nc3sccn23)cc1
5. Cc1ccc2cc(C3CC(c4ccccc4)=NN3C(N)=S)c3nnnn3c2c1 (stereo not given)
6. Cc1ccc2cc(C3CC(c4ccccn4)=NN3C(N)=S)c3nnnn3c2c1 (stereo not given)
7. Cc1cccc2oc(-c3ccc(F)cc3)c(OCc3nnn[nH]3)c(=O)c12

1: 6.25 to 100 µg/mL; 2: 7.75 to 35.4 µg/mL; 3: 50 to 100 µg/mL; 4: > 320 µg/mL; 5: 3.12 to 100 µg/mL; 6: 3.12 to 100 µg/mL; 7: 50 to 400 µg/mL
